Below: a set of entries, each annotated with reported melting point.

Some entries whose results are on file:
compound | melting point
CN1CCC(c2[nH]c(=O)c3ccccc3c2-c2ccccc2)CC1 | 258 to 260 °C
CC(C)(C)OC(=O)[C@@H]1CCCN1C(=O)Cl | 89 to 92 °C
CC(=O)SCCC(=O)Oc1ccc([N+](=O)[O-])cc1 | 71 to 73 °C

*Q* Need melting point of `COC(=O)c1nscc1S(=O)(=O)Cl` , thanks.
*A* 42 to 46 °C

* * *

endpoint: melting point

Some entries whose results are on file:
compound | endpoint | result
COc1ccc(-c2coc3cc(OC(C)C)ccc3c2=O)cc1 | melting point | 245 to 246 °C
CO/C=C(/C(=O)OC)c1ccccc1Oc1cc(N)ncn1 | melting point | 158 to 160 °C
O=[N+]([O-])c1ccc(OCc2ccc(F)cc2)cc1 | melting point | 124 to 126 °C
Cc1cc(C(=O)Nc2ccc(C(=O)O)cc2)no1 | melting point | 267 to 270 °C

Turning to the following compound.
*Q* Need melting point of `CSc1cnnc(Cl)c1` , thanks.
*A* 98 to 100 °C

* * *

Below: a set of entries, each annotated with reported melting point.

Some entries whose results are on file:
compound | result
NS(=O)c1ccccc1 (stereo not drawn) | 112 to 115 °C
CC(=O)OCC(=O)c1ccc(C)cc1 | 85 °C
NC(=O)c1cccc2c1[nH]c1c3cc(Br)ccc3oc21 | 300 to 301 °C
CN1CCC(ON2C(=O)c3ccccc3C2=O)CC1 | 90 °C
CC(C)Oc1ccc2nc(COc3ccc(CC4SC(=O)N(C(c5ccccc5)(c5ccccc5)c5ccccc5)C4=O)cc3)n(C)c2n1 (stereo not drawn) | 90 to 100 °C

*Q* Need melting point of `COc1ccc(CSc2nnc(-c3ccc4nccn4c3)o2)cc1C(F)(F)F` , thanks.
*A* 146 to 147 °C

*Q* Also `Fc1cc2c(cc1F)Sc1cc(F)c(F)cc1S2` ?
*A* 108 °C

* * *

Below: a set of entries, each annotated with reported melting point.

Some entries whose results are on file:
molecule | melting point
CCOC(=O)c1c(NCC(=O)c2ccc(C(F)(F)F)cc2)c2c(Cl)cc(Cl)cc2n1C(=O)OC(C)(C)C | 159 to 160 °C
Cc1ccc(S(=O)(=O)OC[C@H]2COc3ccc4nc(C)ccc4c3O2)cc1 | 115 to 117 °C
COc1cccc(CC(=O)O)c1OCCCc1cn(-c2ccc(C(F)(F)F)cc2)nc1C(C)C | 114 to 115 °C
O=C(Nc1ccc(Cl)cc1)NC1N=C(c2ccccc2)c2ccccc2N(CC(=O)OCc2ccccc2)C1=O (stereo not given) | 220 to 222 °C
O=C(NC1Cc2cccc(-c3ccc(F)cc3)c2C1)c1ccc(F)cc1 (stereo not given) | 157 °C
CC(CSC(=O)c1ccccc1)C(=O)N1Cc2ccccc2CC1C(=O)O (stereo not given) | 154 to 155 °C
O=C(O)C1CCCc2c(noc2-c2ccc(Cl)cc2)C1 (stereo not given) | 231 to 233 °C
COc1ccc(C(O)c2cccc(OCc3ccccc3)c2)cc1 (stereo not given) | 50 to 60 °C

*Q* Need melting point of CNC(=O)c1cc(CN2C(=O)C3(COc4cc5c(cc43)OCO5)c3ccccc32)oc1C(F)(F)F (stereo not given) , thanks.
*A* 202 to 203 °C

*Q* Also `CCOC(=O)CN(C)C(=O)c1ccccc1C(=O)c1cc(C(C)(C)C)c(O)c(C(C)(C)C)c1` ?
*A* 98 to 99 °C

*Q* Also `O=C(CCO)Nc1cccc(S)c1` ?
*A* 103 to 104 °C

*Q* Also `CCCC[C@H](NC(=O)[C@H](C)Nc1nc2ccccc2s1)C(=O)OC` ?
*A* 99 to 120 °C

*Q* Also O=C(OCC12CCCN(CC1)C2)c1c[nH]c2ccccc12 (stereo not given) ?
*A* 184 to 185 °C
